target_system: human DGKζ (Homo sapiens)
Construct: TVMV protease cleavage site (C); Hexa-His (C); made in house; host or cells: Sf9 insect cells (baculovirus, Bac-to-Bac)
assay_explanation: DGKζ LIPGLO assay (extruded liposome substrate), in vitro DGK inhibition
Format: biochemical
test_context: liposome (LIPGLO) assay; read-out: DGKz LIPGLO IC50
Label rule met when IC50 is strictly below 3000 nM; otherwise label rule not met.

Strictly below 3000 nM: is that where IC50 of Cn1c(=O)cc(N2CCN(C(c3ccc(F)cc3)c3ccc(F)cc3)CC2CO)c2nc(C#N)ccc21 (single isomer, unassigned) [Example 148] sits? rule not met

Strictly below 3000 nM: is that where IC50 of COC(=O)C1CN(c2c(F)c(=O)n(C)c3ccc(C#N)nc23)CCN1C(c1ccc(Cl)cc1)c1ccc(Cl)cc1 (single isomer, unassigned) [Example 94] sits? rule not met

Strictly below 3000 nM: is that where IC50 of C[C@@H]1CN(c2cc(=O)n(C)c3ccc(C#N)nc23)[C@@H](C)CN1C(c1ccc(F)c(F)c1)c1ccccn1 (single isomer, unassigned) [Example 376] sits? rule met

Strictly below 3000 nM: is that where IC50 of CC[C@H]1CN(C(C)c2ccc(OC(F)(F)F)cc2)[C@H](C)CN1c1cc(=O)n(C)c2ccc(C#N)nc12 (single isomer, unassigned) [Example 1142] sits? rule met

Strictly below 3000 nM: is that where IC50 of C[C@@H]1CN(c2cc(=O)n(C)c3ccc(C#N)nc23)[C@@H](C)CN1C(c1ccc(Cl)cc1)c1ccccn1 (single isomer, unassigned) [Example 382] sits? rule met

Strictly below 3000 nM: is that where IC50 of C[C@@H]1CN(c2cc(=O)n(C)c3ccc(C#N)nc23)[C@@H](C)CN1C(c1ccc(F)cc1)c1cccc2c1OC(F)(F)O2 (stereo partly drawn) [Example 668] sits? rule not met

====

target_system: human DGKα (Homo sapiens)
Construct: TVMV protease cleavage site (C); Hexa-His (C); made in house; host or cells: Sf9 insect cells (baculovirus, Bac-to-Bac)
assay_explanation: DGKα LIPGLO assay (extruded liposome substrate), in vitro DGK inhibition
Type: biochemical
test_context: liposome (LIPGLO) assay; read-out: DGKa LIPGLO IC50
For each record, write down the corresponding IC50.
State just the number; it will be interpreted in µM.

// IC50 lookup, key: Cc1nc2ccc(C(C)N3C[C@H](C)N(c4cc(=O)n(C)c5ccc(C#N)nc45)C[C@H]3C)cc2s1 (single isomer, unassigned) [Example 1263] 0.95

// IC50 lookup, key: C[C@@H]1CN(c2cc(=O)n(C)c3ccc(C#N)nc23)[C@@H](C)CN1Cc1ccc(OC(F)(F)F)c(Br)c1 11

// IC50 lookup, key: CCOc1ncccc1C(c1ccc(F)cc1)N1C[C@H](C)N(c2cc(=O)n(C)c3ccc(C#N)nc23)C[C@H]1C (single isomer, unassigned) [Example 205] 37

====

For each record, write down the corresponding IC50.
target_system: human DGKζ (Homo sapiens)
Construct: TVMV protease cleavage site (C); Hexa-His (C); made in house; host or cells: Sf9 insect cells (baculovirus, Bac-to-Bac)
assay_explanation: DGKζ LIPGLO assay (extruded liposome substrate), in vitro DGK inhibition
Format: biochemical
test_context: DGKζ liposome (LIPGLO) assay; read-out: DGKz LIPGLO IC50
Your answer should be a number followed by the unit of measure.

// IC50 lookup, key: C[C@@H]1CN(c2cc(=O)n(C)c3ccc(C#N)nc23)[C@@H](C)CN1C(c1ccc(F)cc1)c1nc(C2CN(C(=O)OC(C)(C)C)C2)no1 (single isomer, unassigned) [Example 757] 160 nM

// IC50 lookup, key: CCc1ccccc1C(c1ccc(F)cc1)N1CCN(c2c(C#N)c(=O)n(C)c3ccc(C#N)nc23)C[C@H]1C (stereo partly shown) [Example 877] 240 nM

// IC50 lookup, key: C[C@@H]1CN(c2cc(=O)n(C)c3ccc(C#N)nc23)[C@@H](C)CN1C(c1ccc(F)cc1)c1nc(C2CCOCC2)no1 (single isomer, unassigned) [Example 739] 760 nM

// IC50 lookup, key: C[C@@H]1CN(c2c(C#N)c(=O)n(C)c3ccc(C#N)nc23)CCN1C(c1ccc(Cl)cc1)c1ccc(Cl)cn1 (stereo partly shown) [Example 930] 1300 nM

// IC50 lookup, key: Cc1cccc(C(C)N2CCN(c3c(C#N)c(=O)n(C)c4ccc(C#N)nc34)C[C@H]2C)n1 (stereo partly shown) [Example 967] 51000 nM

// IC50 lookup, key: C[C@@H]1CN(c2cc(=O)n(C)c3ccc(C#N)nc23)[C@@H](C)CN1C(c1ccc(F)cc1)c1nc(C2CCN(C)CC2)no1 (single isomer, unassigned) [Example 752] 4100 nM

// IC50 lookup, key: C[C@@H]1CN(c2c(C#N)c(=O)n(C)c3ccc(C#N)nc23)CCN1C(c1ccc(F)cc1)c1ccccn1 (single isomer, unassigned) [Example 919] 5800 nM

// IC50 lookup, key: C[C@@H]1CN(c2c(C#N)c(=O)n(C)c3ccc(C#N)nc23)CCN1C(c1ccc(F)cc1)c1cnccn1 (stereo partly shown) 6700 nM

// IC50 lookup, key: C[C@@H]1CN(c2cc(=O)n(C)c3ccc(C#N)nc23)[C@@H](C)CN1C(c1ccc(F)cc1)c1nc(C2CC2)nn1C (single isomer, unassigned) [Example 768] 3200 nM

// IC50 lookup, key: CC(c1ccc(OC(F)(F)F)cc1)N1C[C@H](C)N(c2c(C#N)c(=O)n(C)c3ccc(C#N)nc23)C[C@H]1C (single isomer, unassigned) [Example 801] 2200 nM

====

target_system: human DGKζ (Homo sapiens, UniProt Q13574)
Construct: TVMV protease cleavage site (C); Hexa-His (C); made in house; host or cells: Sf9 insect cells (baculovirus, Bac-to-Bac)
Sequence (Q13574 with tags, fused parts or gaps isoform Q13574-4): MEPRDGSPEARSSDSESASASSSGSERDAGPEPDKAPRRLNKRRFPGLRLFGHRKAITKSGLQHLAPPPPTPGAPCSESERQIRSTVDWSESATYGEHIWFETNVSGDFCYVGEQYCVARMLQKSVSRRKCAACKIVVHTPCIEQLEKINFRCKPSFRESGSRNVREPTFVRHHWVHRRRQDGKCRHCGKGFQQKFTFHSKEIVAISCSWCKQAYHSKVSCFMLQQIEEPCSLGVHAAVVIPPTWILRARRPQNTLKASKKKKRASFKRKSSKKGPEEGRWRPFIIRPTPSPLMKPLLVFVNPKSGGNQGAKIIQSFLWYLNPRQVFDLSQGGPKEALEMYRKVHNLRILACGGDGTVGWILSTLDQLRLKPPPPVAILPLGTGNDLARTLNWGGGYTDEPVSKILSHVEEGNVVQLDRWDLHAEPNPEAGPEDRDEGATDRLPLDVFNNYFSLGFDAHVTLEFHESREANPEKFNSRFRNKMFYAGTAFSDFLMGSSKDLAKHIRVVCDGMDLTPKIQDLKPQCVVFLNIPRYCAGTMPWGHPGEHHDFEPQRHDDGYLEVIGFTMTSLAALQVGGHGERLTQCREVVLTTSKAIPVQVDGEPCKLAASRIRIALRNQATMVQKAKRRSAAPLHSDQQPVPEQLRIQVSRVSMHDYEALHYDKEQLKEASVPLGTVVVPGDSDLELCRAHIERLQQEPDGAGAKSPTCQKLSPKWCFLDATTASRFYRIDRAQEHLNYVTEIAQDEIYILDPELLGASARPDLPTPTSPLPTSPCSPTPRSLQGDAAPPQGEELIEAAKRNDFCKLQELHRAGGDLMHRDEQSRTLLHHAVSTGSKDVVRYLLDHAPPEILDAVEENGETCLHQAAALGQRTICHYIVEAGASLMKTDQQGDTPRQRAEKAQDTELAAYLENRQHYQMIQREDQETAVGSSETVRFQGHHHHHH
assay_explanation: DGKζ LIPGLO assay (extruded liposome substrate), in vitro DGK inhibition
Type: biochemical
test_context: DGKζ liposome (LIPGLO) assay; read-out: DGKz LIPGLO IC50
measured_attribute: pIC50
Just the number, please; pIC50 means minus log10 of the concentration in mol/L.

Notebook entry, human DGKζ (Homo sapiens, UniProt Q13574) assay: pIC50 of CC1CN(C(c2ccc(F)cc2)c2nc(C(C)(C)C)no2)C(C)CN1c1c(C#N)c(=O)n(C)c2ccc(C#N)nc12 (single isomer, unassigned) [Example 863] = ? 6.72

Notebook entry, human DGKζ (Homo sapiens, UniProt Q13574) assay: pIC50 of C[C@@H]1CN(c2c(C#N)c(=O)n(C)c3ccc(C#N)nc23)CCN1C(c1ccc(F)cc1)c1cnn(C)c1 (stereo partly drawn) [Example 1017] = ? 5.08

Notebook entry, human DGKζ (Homo sapiens, UniProt Q13574) assay: pIC50 of Cc1noc(C(c2ccc(F)cc2)N2C[C@H](C)N(c3cc(=O)n(C)c4ccc(C#N)nc34)C[C@H]2C)n1 (stereo partly drawn) [Example 746] = ? 6.77

Notebook entry, human DGKζ (Homo sapiens, UniProt Q13574) assay: pIC50 of CC(c1ccc(F)c(F)c1)N1CCN(c2c(C#N)c(=O)n(C)c3ccc(C#N)nc23)C[C@H]1C (stereo partly drawn) [Example 956] = ? 5.12

Notebook entry, human DGKζ (Homo sapiens, UniProt Q13574) assay: pIC50 of Cc1cccc(C(C)N2CCN(c3c(C#N)c(=O)n(C)c4ccc(C#N)nc34)C[C@H]2C)n1 (stereo partly drawn) [Example 964] = ? 4.49

Notebook entry, human DGKζ (Homo sapiens, UniProt Q13574) assay: pIC50 of C[C@@H]1CN(c2c(C#N)c(=O)n(C)c3ccc(C#N)nc23)CCN1C(c1ccc(F)cc1)c1ccc(C(F)(F)F)cn1 (single isomer, unassigned) [Example 897] = ? 5.29

====

For each record, write down the corresponding pIC50.
target_system: human DGKα (Homo sapiens, UniProt P23743)
Construct: TVMV protease cleavage site (C); Hexa-His (C); made in house; host or cells: Sf9 insect cells (baculovirus, Bac-to-Bac)
Sequence (P23743 with tags, fused parts or gaps): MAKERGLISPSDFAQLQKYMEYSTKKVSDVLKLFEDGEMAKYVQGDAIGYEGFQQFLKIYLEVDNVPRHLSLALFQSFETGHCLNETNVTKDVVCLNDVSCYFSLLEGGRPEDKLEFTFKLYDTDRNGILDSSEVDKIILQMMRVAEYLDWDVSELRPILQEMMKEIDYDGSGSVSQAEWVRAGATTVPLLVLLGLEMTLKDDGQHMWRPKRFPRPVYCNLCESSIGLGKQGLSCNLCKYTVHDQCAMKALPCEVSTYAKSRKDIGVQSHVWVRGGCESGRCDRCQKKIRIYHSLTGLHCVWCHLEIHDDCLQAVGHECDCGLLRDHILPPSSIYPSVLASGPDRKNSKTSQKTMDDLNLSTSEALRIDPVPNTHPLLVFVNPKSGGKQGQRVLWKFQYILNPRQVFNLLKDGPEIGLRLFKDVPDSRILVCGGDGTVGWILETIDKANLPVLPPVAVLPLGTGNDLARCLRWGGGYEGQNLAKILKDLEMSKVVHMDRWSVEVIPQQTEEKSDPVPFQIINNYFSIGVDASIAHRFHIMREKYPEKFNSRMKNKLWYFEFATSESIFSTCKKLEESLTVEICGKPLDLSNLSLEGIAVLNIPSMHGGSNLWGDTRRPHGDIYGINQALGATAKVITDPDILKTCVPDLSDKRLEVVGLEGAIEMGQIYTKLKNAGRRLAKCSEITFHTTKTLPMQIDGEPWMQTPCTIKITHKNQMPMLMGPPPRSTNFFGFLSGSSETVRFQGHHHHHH
assay_explanation: DGKα LIPGLO assay (extruded liposome substrate), in vitro DGK inhibition
Format: biochemical
test_context: liposome (LIPGLO) assay; read-out: DGKa LIPGLO IC50
Just the number, please; pIC50 means minus log10 of the concentration in mol/L.

Notebook entry, human DGKα (Homo sapiens, UniProt P23743) assay: pIC50 of C[C@@H]1CN(c2cc(=O)n(C)c3ccc(C#N)nc23)[C@@H](C)CN1C(c1ccc(F)cc1)c1cc(F)ccn1 (stereo partly drawn) [Example 472] = ? 5.89

Notebook entry, human DGKα (Homo sapiens, UniProt P23743) assay: pIC50 of CCC(c1ccc(C2CC2)cc1F)N1C[C@H](C)N(c2cc(=O)n(C)c3ccc(C#N)nc23)C[C@H]1C (stereo partly drawn) [Example 1218] = ? 7.17

Notebook entry, human DGKα (Homo sapiens, UniProt P23743) assay: pIC50 of CCC(c1ccc(C2CC2)cc1F)N1C[C@H](CC)N(c2cc(=O)n(C)c3ccc(C#N)nc23)C[C@H]1CC (single isomer, unassigned) [Example 1360] = ? 6.08

Notebook entry, human DGKα (Homo sapiens, UniProt P23743) assay: pIC50 of CC[C@H]1CN(C(c2ccc(F)cc2)c2csc(C(F)(F)F)n2)[C@H](CC)CN1c1cc(=O)n(C)c2ccc(C#N)nc12 (single isomer, unassigned) [Example 1361] = ? 7.96

Notebook entry, human DGKα (Homo sapiens, UniProt P23743) assay: pIC50 of CC[C@H]1CN(C(c2ccc(F)cc2)c2cc(C3CC3)on2)[C@H](CC)CN1c1cc(=O)n(C)c2ccc(C#N)nc12 (single isomer, unassigned) [Example 1074] = ? 7.36

Notebook entry, human DGKα (Homo sapiens, UniProt P23743) assay: pIC50 of Cc1ccc(C(c2ccc(C)cn2)N2C[C@H](C)N(c3cc(=O)n(C)c4ccc(C#N)nc34)C[C@H]2C)cc1 (single isomer, unassigned) [Example 454] = ? 6.64

All values here come from patent US10669272B2.
